- measuredTarget: Serotonin receptor 2a and 2c (5HT2A and 5HT2C) (Rattus norvegicus) (UniProt P08909+P14842)
- Sequence (P08909 whole entry, looked up): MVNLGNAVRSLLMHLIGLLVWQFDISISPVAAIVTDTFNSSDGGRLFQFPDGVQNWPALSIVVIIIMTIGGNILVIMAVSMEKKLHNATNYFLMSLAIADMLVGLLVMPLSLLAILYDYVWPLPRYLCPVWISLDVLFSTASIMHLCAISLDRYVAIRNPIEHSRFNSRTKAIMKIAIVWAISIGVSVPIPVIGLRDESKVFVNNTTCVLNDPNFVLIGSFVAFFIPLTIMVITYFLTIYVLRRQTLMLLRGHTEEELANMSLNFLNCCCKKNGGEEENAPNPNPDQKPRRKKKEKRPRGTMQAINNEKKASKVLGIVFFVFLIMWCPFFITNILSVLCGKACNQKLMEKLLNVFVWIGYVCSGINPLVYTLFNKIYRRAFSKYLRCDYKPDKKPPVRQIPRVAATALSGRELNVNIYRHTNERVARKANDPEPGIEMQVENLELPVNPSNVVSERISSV
- Sequence (P14842 whole entry, looked up): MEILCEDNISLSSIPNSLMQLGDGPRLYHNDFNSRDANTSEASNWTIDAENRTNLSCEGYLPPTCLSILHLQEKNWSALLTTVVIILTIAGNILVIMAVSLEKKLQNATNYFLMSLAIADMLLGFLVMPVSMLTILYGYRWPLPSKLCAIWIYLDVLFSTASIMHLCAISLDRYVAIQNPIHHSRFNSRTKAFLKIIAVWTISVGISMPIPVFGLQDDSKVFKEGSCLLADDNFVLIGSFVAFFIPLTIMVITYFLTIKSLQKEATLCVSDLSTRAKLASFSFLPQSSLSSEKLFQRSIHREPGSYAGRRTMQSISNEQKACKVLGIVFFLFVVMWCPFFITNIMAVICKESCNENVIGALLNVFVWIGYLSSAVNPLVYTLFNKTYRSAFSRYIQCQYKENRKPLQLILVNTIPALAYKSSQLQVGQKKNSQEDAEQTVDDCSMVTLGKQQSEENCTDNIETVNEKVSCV
- assayDetails: Selectivity as the ratio of Ki value towards 5-hydroxytryptamine 2C receptor to that of 5-hydroxytryptamine 2A receptor
- Assay type: protein assay
List of Selectivity values.
Lab note: write the figure by itself, no unit.

> print(dat)
                          compound  resultnumber
1  c1ccc(CCN2CCC(Cc3ccccc3)CC2)cc1            80

Continue with the compound presented below.
Respond only with Selectivity recorded for c1ccc(CCCCN2CCC(=C(c3ccccc3)c3ccccc3)CC2)cc1
11

====

Each item that follows carries a reported pKi.
- measuredTarget: 5-hydroxytryptamine receptor 2A (Rattus norvegicus, UniProt P14842)
# log scale: pKi equals minus log10 of the concentration in mol/L

> print(dat)
                                   compound  resultnumber
1           c1ccc(CCN2CCC(Cc3ccccc3)CC2)cc1          7.66
2                  CN1CCC(C(=O)c2ccccc2)CC1          6.22
3  OC(c1ccccc1)C1CCN(CCCCc2ccccc2)CC1 (stereo not given)          6.58

Let us move to another entry and its pKi.
Give pKi for this entry on 5-hydroxytryptamine receptor 2A (Rattus norvegicus, UniProt P14842): c1ccc(CCCCN2CCC(=C(c3ccccc3)c3ccccc3)CC2)cc1
7.70
